target: SARS-COV-2 Wuhan Reference RBD (SARS-CoV-2, UniProt P0DTC2 319-541); test: ELISA, RBD coated
Readout Name: pEC50
Lab note: report pEC50 as minus log10 of the concentration in molar units, number only.

Lookup result for PP1149 MBP-5HVZ-PAPA-R5a-E5-H6 (VHH, Form: Dimer) VHH: QVQLVESGGGLVQPGGSLRLSCAASGYDFDILRMAWFRQAPGKEREMVAAITSAESVNYEDSVKGRFTISRDNAKNTVYLQMNSLKPEDTAVYYCATYDYTDDYGYASWGQGTQVTVSS ; measured pEC50: 8.60

Lab note: PP930 MBP-5HVZ-R2b-D4-H6 (VHH, Form: Dimer) VHH: QVQLVESGGGLVQPGGSLRLSCAASGSYASIASMHWFRQAPGKQREFVAGLTSGGSRIYGDSVKGRFTISRDNAKNTVYLQMNSLKPEDTAVYYCTALILHYAGMYDYWGQGTQVTVSS gave pEC50 of 8.50

get_value(item= PP900 MBP-5HVZ-R5a-F2-H6 (VHH, Form: Dimer) VHH: QVQLVESGGGLVQPGGSLRLSCAASGSISSIEAMSWFRQAPGKQREGVATMASGGDTSYADSVKGRFTISRDNAKNTVYLQMNSLKPEDTAVYYCAAQTYRPDTWGRYTFWGQGTQVTVSS , readout=pEC50) returns 9.33

Notebook: PP906 MBP-5HVZ-S1b-E7-H6 (VHH, Form: Dimer) VHH: QVQLVESGGGLVQPGGSLRLSCAASGGEFSDNGLHWFRQAPGKQREFVATASSDGSTQYRDSVKGRFTISRDNAKNTVYLQMNSLKPEDTAVYYCTALLMSSAGEYDVWGQGTQVTVSS , pEC50 read as 8.70

// provenance: patent US20240150440A1
